Some binders, each annotated with its measured IC90, Activin SMAD RGA.
- Target Under Test: ActRIIA and ActRIIB (on TGFB/SMAD SBE Reporter HEK293 cells) (human)
- Sequence (chain, as listed by the source, chain 1 of 2): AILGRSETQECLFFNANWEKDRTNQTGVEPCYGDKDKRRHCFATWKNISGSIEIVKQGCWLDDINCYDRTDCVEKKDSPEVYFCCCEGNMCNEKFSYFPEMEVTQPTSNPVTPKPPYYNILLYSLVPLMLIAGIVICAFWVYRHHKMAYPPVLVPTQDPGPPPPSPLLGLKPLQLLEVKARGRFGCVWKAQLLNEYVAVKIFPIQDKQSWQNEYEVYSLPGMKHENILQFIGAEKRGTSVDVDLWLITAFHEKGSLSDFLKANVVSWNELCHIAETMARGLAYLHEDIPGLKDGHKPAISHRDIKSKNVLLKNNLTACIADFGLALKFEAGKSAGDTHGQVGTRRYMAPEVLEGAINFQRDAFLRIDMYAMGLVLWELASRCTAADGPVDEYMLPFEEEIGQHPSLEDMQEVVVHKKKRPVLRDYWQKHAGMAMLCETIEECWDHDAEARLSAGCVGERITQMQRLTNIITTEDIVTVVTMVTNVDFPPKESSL
- Sequence (chain, as listed by the source, chain 2 of 2): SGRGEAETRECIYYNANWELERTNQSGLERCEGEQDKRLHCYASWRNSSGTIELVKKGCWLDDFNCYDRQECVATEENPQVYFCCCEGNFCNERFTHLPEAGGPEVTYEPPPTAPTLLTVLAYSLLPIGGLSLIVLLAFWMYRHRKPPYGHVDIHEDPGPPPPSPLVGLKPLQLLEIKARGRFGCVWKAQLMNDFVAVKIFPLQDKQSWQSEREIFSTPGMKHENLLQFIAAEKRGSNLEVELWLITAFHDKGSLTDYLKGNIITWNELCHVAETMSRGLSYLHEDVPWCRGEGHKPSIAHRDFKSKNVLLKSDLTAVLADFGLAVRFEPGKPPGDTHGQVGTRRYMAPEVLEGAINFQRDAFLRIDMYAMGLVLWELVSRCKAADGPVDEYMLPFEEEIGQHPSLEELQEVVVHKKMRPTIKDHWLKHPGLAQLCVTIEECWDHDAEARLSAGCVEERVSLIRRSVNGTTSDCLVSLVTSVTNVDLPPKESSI
- Method Notes: cell-based or functional assay
Value Type: IC90, Activin SMAD RGA (nM)

Binder	Result
Antibody Metzelsupp (antibody, V domains shown) VH: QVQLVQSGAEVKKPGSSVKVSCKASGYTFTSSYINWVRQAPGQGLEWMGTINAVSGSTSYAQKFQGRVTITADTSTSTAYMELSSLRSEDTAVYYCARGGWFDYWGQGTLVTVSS VL: QSALTQPRSVSGSPGQSVTISCTGTSSDVGSFNYVNWYQQHPGKAPKLMIRGVSKRESGVPDRFSGSKSGNTASLTISGLQAEDEADYYCGTFAGGAYYGVFGGGTKLTVL	3.79
Antibody Oierspätzla (antibody, V domains shown) VH: QVQLVQSGAEVKKPGSSVKVSCKASGYTFTSSYINWVRQAPGQGLEWMGTINPVSGSTSYAQKFQGRVTITADTSTSTAYMELSSLRSEDTAVYYCARGGWFDYWGQGTLVTVSS VL: QSALTQPRSVSGSPGQSVTISCTGTSSDVGSYNYVNWYQQHPGKAPKLMIYGVSKRESGVPDRFSGSKSGNTASLTISGLQAEDEADYYCGTFAGGAYYGVFGGGTKLTVL	3.06
Antibody Hegemark (antibody, V domains shown) VH: QVQLVQSGAEVKKPGSSVKVSCKASGYKFTSSYINWVRQAPGQGLEWMGTINAVSGSTSYAQKFQGRVTITADTSTSTAYMELSSLRSEDTAVYYCARGGWFDYWGQGTLVTVSS VL: QSALTQPRSVSGSPGQSVTISCTGTSSDVGSKNYVNWYQQHPGKAPKLMIYGVSKRHSGVPDRFSGSKSGNTASLTISGLQAEDEADYYCGTFAGGKYYGVFGGGTKLTVL	4.37
Antibody Nonnafürzla (antibody, V domains shown) VH: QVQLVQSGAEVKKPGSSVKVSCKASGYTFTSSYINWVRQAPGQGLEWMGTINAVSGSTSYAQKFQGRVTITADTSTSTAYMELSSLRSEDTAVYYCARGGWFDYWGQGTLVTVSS VL: QSALTQPRSVSGSPGQSVTISCTGTSSDVGSYNYVNWYQQHPGKAPKLMIYGVSKRDSGVPDRFSGSKSGNTASLTISGLQAEDEADYYCGTFAGGKYYGVFGGGTKLTVL	3.81
Antibody Peitscheschdegga (antibody, V domains shown) VH: QVQLVQSGAEVKKPGSSVKVSCKASGYKFTSSYINWVRQAPGQGLEWMGTINAVSGSTSYAQKFQGRVTITADTSTSTAYMELSSLRSEDTAVYYCARGGWFDYWGQGTLVTVSS VL: QSALTQPRSVSGSPGQSVTISCTGTSSDVGSKNYVNWYQQHPGKAPKLMIHGVSKRESGVPDRFSGSKSGNTASLTISGLQAEDEADYYCGTFAGGKYYGVFGGGTKLTVL	4.92
